biological target: T1, human CD4 on cells (SKW3 cells; human PBMCs) (human, UniProt P01730 26-458); experiment: FACS binning on SKW3 cells pre-incubated with supernatant; competitor OKT4a read with anti-human A647 secondary; background 5000, max binding 35000
T1 construct: whole, on cells; SKW3 CD4 knockout cells served as the negative cell line; also called hCD4
RECORDED_METRIC: SKW3 FACS Binning OKT4a anti-hu A647 Secondary
Please respond with just the number, no unit label.

# input binder: 75110_04G16A (antibody, V domains shown, Tested as non-clonal AlivaMab Mouse Kappa hybridoma supernatant: human variable domains and human kappa, mouse Fc) VH: QVQLQESGPGLVKPSQTLSLTCTVSGDSISSGYYYWSWIRQHPGKGLEWIGYISYSGSTYYNPSLKSRLTISVNTSKNQFSLKLSSLTAADTAVYYCARDRPSNFDAFDIWGQGTMVTVSS VL: EIVLTQSPGTLSLSPGERATLSCRASQSVGSTYLAWYQQKPGQAPRLLIYGAFSRATGIPDRFSGSGSGTDFTLTISRLEPEDFAVYYCQQYGSSPLTFGPGTKVDIK ; wanted: its SKW3 FACS Binning OKT4a anti-hu A647 Secondary
6740
